test system: DU-145 prostate; assay: NCI-60 one-dose screen, 48 h (100 = growth as untreated, 0 = no growth, -100 = all killed); conditions: 10 µM unless noted
Compounds without any hit were thinned out: in the full panel of roughly 83,000, 20% have a hit. Calls of active or inactive are those of the source. How the source made its calls: active means growth percent below 10; inactive means the rest.
Collected growth values appear next to each entry.

Example cases with answers are listed next.
O=C(Nc1cccc(Cn2c(=O)[nH]c3ccc(Oc4ncccn4)cc3c2=O)c1)c1cc(Cl)cc(Cl)c1 | 68% (inactive)
C[n+]1c2ccccc2c(Nc2ccc(NS(=O)(=O)CCCCN=C(N)N)cc2)c2ccc(N)cc21 | 23.7% (inactive)
CC(=N\N=C(N)N)/C(=N/N=C(N)N)c1ccccc1 | 51.7% (inactive)
CCCCCCCCCCCCOC(=O)/C=C\C(=O)NC(N)=O | 95.4% (inactive)
CNc1nc2ncn(C)c2c(=O)[nH]1 | 106% (inactive)

query: Which growth reading was recorded for the compound O=c1c(N=Nc2nccs2)c(-c2ccccc2)[nH]n1-c1nc(-c2ccccc2)cs1 ?
result: 43.8% (inactive)

query: Which growth reading was recorded for the compound CCNc1nnc(COc2ccc(CNC(=O)CCCC/C=C/C(C)C)cc2OC)o1 ?
result: 109% (inactive)

query: Which growth reading was recorded for the compound CC(=O)Nc1ccc(C(=O)/C=C/c2ccc(N(C)C)cc2)cc1 ?
result: 98.2% (inactive)

query: Which growth reading was recorded for the compound Oc1ccc(Br)cc1/C=N/NC(=S)NC12CC3CC(CC(C3)C1)C2 ?
result: 9.26% (active)

query: Which growth reading was recorded for the compound O=C1C(=O)c2ccccc2C(O)=C1CCCc1ccc(Oc2ccccc2)cc1 ?
result: 85.4% (inactive)

query: Which growth reading was recorded for the compound Cc1nc(N)sc1C(=O)NCCO ?
result: 105% (inactive)

query: Which growth reading was recorded for the compound O=C(Nc1ccc(-n2cc(-c3ccncc3)c(-c3ccc(Cl)c(O)c3)n2)cc1)Nc1cc(C(F)(F)F)cc(C(F)(F)F)c1 ?
result: 36.4% (inactive)

query: Which growth reading was recorded for the compound C[C@@H](c1ccc2c(c1)[nH]c1ccc(Cl)cc12)c1nc2ccc(Cl)cc2[nH]1 ?
result: 90.7% (inactive)

query: Which growth reading was recorded for the compound O=C(N/N=C\c1ccc(Cl)cc1)C(=O)N/N=C\c1ccc(Cl)cc1 ?
result: 123% (inactive)

query: Which growth reading was recorded for the compound COC1NC(Cl)=C(C#N)C(C#N)(C#N)C1(C)C (stereo not given) ?
result: 94.2% (inactive)

query: Which growth reading was recorded for the compound CCS(=O)(=O)OCCO[C@H]1Cc2cc3ccc(=O)oc3cc2OC1(C)C ?
result: 103% (inactive)

query: Which growth reading was recorded for the compound C/C(=N\Nc1ccc(Cl)cn1)c1ccc2ccccc2n1 ?
result: 19.9% (inactive)

query: Which growth reading was recorded for the compound Nc1ncn([C@@H]2O[C@H](CO)[C@@H](O)C2(F)F)c(=O)n1 ?
result: 43.5% (inactive)

query: Which growth reading was recorded for the compound [N-]=[N+]=Nc1ncc(-c2ccc(C(F)(F)F)cc2)c(NC2CCCCCC2)n1 ?
result: 37.1% [100 µM] (inactive)

query: Which growth reading was recorded for the compound COc1ccc(/C=C(/C(=O)N2CCN(c3ccc(C)cc3)CC2)c2cc(OC)c(OC)c(OC)c2)cc1N ?
result: 5.56% (active)

query: Which growth reading was recorded for the compound COC(c1ccccc1)C(Br)C(=O)c1ccccc1 (stereo not given) ?
result: 116% (inactive)

query: Which growth reading was recorded for the compound O=C(O)CC1Cc2ccccc2C1C(=O)O (stereo not given) ?
result: 106% (inactive)

query: Which growth reading was recorded for the compound Nc1ccc(S(=O)(=O)c2ccc(NO)cc2)cc1 ?
result: 89.4% (inactive)

query: Which growth reading was recorded for the compound CC([C@H]1CCC2C3CCC4C[C@@H](N)CC[C@]4(C)C3CC[C@@]21C)N(C)C (stereo not given in full) ?
result: 88.7% (inactive)

====

system: SK-MEL-28 melanoma; test: NCI-60 one-dose screen, 48 h (100 = growth as untreated, 0 = no growth, -100 = all killed); details: 10 µM unless noted
Compounds without any hit were thinned out: in the full panel of roughly 83,000, 20% have a hit. Activity calls are given as the source filed them. How the source made its calls: active means growth percent below 10; inactive means the rest.
METRIC: growth

CCC(CCCN1C(=O)c2ccccc2C1=O)Nc1cc(OC)cc2c(C)ccnc12 (stereo not drawn) | 101% (inactive)

query: Which growth reading was recorded for the molecule c1ccc(-c2cn3ccnc3c(-c3ccc4ncn(C5CCCCC5)c4c3)n2)cc1 ?
result: 82% (inactive)

query: Which growth reading was recorded for the molecule CC(=O)NCCN ?
result: 108% (inactive)

query: Which growth reading was recorded for the molecule CC(=O)Nc1nc(C)c(C(=O)NNC(=O)Nc2ccccc2)s1 ?
result: 105% (inactive)

query: Which growth reading was recorded for the molecule COc1cc2ncnc(-n3ncc4cc(NC(=O)Nc5ccccc5)ccc43)c2cc1OC ?
result: -15.1% (active)

query: Which growth reading was recorded for the molecule C/C(=C\c1ccc2ccccc2c1)[N+](=O)[O-] ?
result: 37% (inactive)

query: Which growth reading was recorded for the molecule Cc1ccc(C(=O)Nc2ccc(CN3CCN(C)CC3)c(C(F)(F)F)c2)cc1C#Cc1cnc(N)c2ccc(F)cc12 ?
result: -96.2% (active)

query: Which growth reading was recorded for the molecule CC(=O)OC1CC2C3CCC4C[C@@H](NC(=O)C=C(C)C)CC[C@]4(C)C3CC[C@]2(C)[C@H]1C(C)N(C)C (stereo partly drawn) ?
result: -91.3% (active)

query: Which growth reading was recorded for the molecule CCOC(=O)c1sc(NS(=O)(=O)c2ccccc2)nc1C ?
result: 123% (inactive)

query: Which growth reading was recorded for the molecule O=C(N/N=C/c1coc2ccccc2c1=O)c1cc2oc(-c3ccccc3)cc2[nH]1 ?
result: 91.9% (inactive)

query: Which growth reading was recorded for the molecule C=CCC(CCC(CC=C)C(=O)OCC)C(=O)OCC (stereo not drawn) ?
result: 91.1% (inactive)

query: Which growth reading was recorded for the molecule CC(=O)N1N=C(c2ccc(Cl)cc2)CC1c1cn(-c2ccccc2)nc1-c1ccc([N+](=O)[O-])cc1 (stereo not drawn) ?
result: 110% (inactive)

query: Which growth reading was recorded for the molecule CC1(C)NC(=S)NC1=O ?
result: 110% (inactive)

query: Which growth reading was recorded for the molecule C[C@H]1C[C@@H](n2cnc3c(N)nccc32)[C@H](O)[C@@H]1O ?
result: 88% (inactive)

query: Which growth reading was recorded for the molecule O=C(N/N=C/c1cc(Cl)ccc1O)C(=O)N/N=C/c1cc(Cl)ccc1O ?
result: 93.2% (inactive)

query: Which growth reading was recorded for the molecule CCCCCc1ccnc(CC(=O)c2ccc(OC)cc2)c1 ?
result: 104% (inactive)

query: Which growth reading was recorded for the molecule O=C(NC(=S)NNC(=S)NNc1ccccc1)c1ccccc1 ?
result: 59.3% (inactive)

query: Which growth reading was recorded for the molecule CSCc1ncc(-c2ccc(C(F)(F)F)cc2)c(NC2CCCCCC2)n1 ?
result: 95.6% [25 µM] (inactive)

query: Which growth reading was recorded for the molecule COCn1c(C(=O)OC)cc2oc(/C=C3/SC(=S)N(N)C3=O)cc21 ?
result: 92.9% (inactive)

query: Which growth reading was recorded for the molecule COc1cc2cn3c4ccc(O)cc4[nH]c(=O)c3c2cc1OC ?
result: 11.5% (inactive)

query: Which growth reading was recorded for the molecule CC(C)(C)c1cc(C[P+](c2ccc(Cl)cc2)(c2ccc(Cl)cc2)c2ccc(Cl)cc2)cc(C(C)(C)C)c1O ?
result: 88% (inactive)

query: Which growth reading was recorded for the molecule COc1cc(-c2cc3cnccc3c3nc(N)c4ccncc4c23)cc(OC)c1OC ?
result: 75.3% (inactive)

query: Which growth reading was recorded for the molecule CC(=O)CCS(=O)c1ccccc1 (stereo not drawn) ?
result: 109% (inactive)

query: Which growth reading was recorded for the molecule O=C1CCNC1 ?
result: 102% (inactive)

====

tested on: UACC-257 melanoma; assay: NCI-60 one-dose screen, 48 h; conditions: 10 µM unless noted
This is part of a sample that, as a whole, favours compounds with a hit. Of some 83,000 tested, about 20% had one in any assay. Active and inactive are the calls of the source. How the source made its calls: active means growth percent below 10; inactive means the rest.
Answer with one of the outcomes Y = active, N = inactive

The examples below pair each entry with its known result.
CC#Cc1nc(Nc2cc(C)[nH]n2)c2ccccc2n1 | Y
CCC(C)[C@H](NC(=O)Nc1cc(C(F)(F)F)cc(C(F)(F)F)c1)C(=O)N[C@@H](Cc1cn(C)cn1)C(=O)OC (stereo partly specified) | Y
COC(c1ccccc1)C(Br)C(=O)c1ccccc1 (stereo unspecified) | N
COc1ccc(Cn2cc3c(c2-c2ccccc2)CCc2cnoc2-3)cc1N | N
COc1cc(-c2nc(/C=C3/C(=O)Nc4ccccc43)c3ccccn23)cc(OC)c1OC | N

Next:
query: // return assay outcome for Oc1ccc(N=Nc2ccc(N=Nc3ccccc3)cc2)cc1
result: N
